System: MDA-N
Experiment: NCI tumour cell line growth inhibition, 48 h
The source made the active and inactive calls. No stated cut-off is given here; in the data, active = GI50 up to about 1.1 µM and inactive = higher.
attributeMeasured: GI50

Worked cases, GI50 given:
| molecule | testSystem | GI50 |
| --- | --- | --- |
| CC12CCC3c4cc(Br)c(O)c(Br)c4CCC3C1CCC2O (stereo not given) | MDA-N | 3.98 µM (inactive) |
| Cc1cn(C2CC(O)C(COC(N)=O)O2)c(=O)[nH]c1=O (stereo not given) | MDA-N | > 100 µM (inactive) |
| OCCOCn1cc(Cn2ncc3c(SCc4ccccc4)ncnc32)nn1 | MDA-N | 14.4 µM (inactive) |
| CSC1=C(c2ccc(Cl)cc2)SC(N2CCCCC2)N1c1ccc([N+](=O)[O-])cc1 (stereo not given) | MDA-N | 39.4 µM (inactive) |
| CC(OC(C)(C)C)[C@H](NC(=O)OCc1ccccc1)C(=O)NC(OCc1ccccc1)[C@H]1COC(C)(C)O1 (stereo not given in full) | MDA-N | > 10 µM (inactive) |
| COC(=O)CC(SCCO)SCCO | MDA-N | > 100 µM (inactive) |
| COc1ccc(-c2nc(SCC(=O)NNC(=S)Nc3ccccc3)[nH]c2-c2ccc(OC)cc2)cc1 | MDA-N | 20.6 µM (inactive) |
| NC(=O)c1nnc2ccc(F)cc2c1N | MDA-N | > 100 µM (inactive) |
| O=C(Nc1nnc(-c2ccccc2)o1)C(SC(=S)N1CCCCC1)c1ccccc1 (stereo not given) | MDA-N | 20.7 µM (inactive) |

Can you share its GI50? I mean this molecule: CCCCCc1c2nc(c(CCCCC)c3ccc([nH]3)c(CCCCC)c3nc(c(CCCCC)c4ccc1[nH]4)C=C3)C=C2 > 100 µM (inactive)
